The values you see were collected from ChEMBL document CHEMBL1275334.

Target: UniProt P08908
Sequence (P08908 whole entry): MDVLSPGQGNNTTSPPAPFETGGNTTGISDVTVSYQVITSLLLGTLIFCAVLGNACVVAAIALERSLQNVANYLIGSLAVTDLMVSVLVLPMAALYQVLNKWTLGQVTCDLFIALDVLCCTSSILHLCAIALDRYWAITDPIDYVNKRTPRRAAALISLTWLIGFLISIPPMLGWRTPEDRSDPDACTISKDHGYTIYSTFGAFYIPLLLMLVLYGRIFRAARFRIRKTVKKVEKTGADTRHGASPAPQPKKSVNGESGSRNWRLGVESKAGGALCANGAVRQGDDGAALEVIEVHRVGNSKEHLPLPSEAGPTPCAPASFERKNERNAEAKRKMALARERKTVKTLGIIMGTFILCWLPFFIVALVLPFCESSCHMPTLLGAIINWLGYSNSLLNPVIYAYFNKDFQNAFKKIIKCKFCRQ

>  <Compound>
CC(C)n1nc(S(=O)(=O)c2cccc3ccccc23)c2cc(N3CCNCC3)ccc21

>  <Relation Operator>
>

>  <Ki [µM]>
5

$$$$
>  <Compound>
Cn1nc(S(=O)(=O)c2cccc3ccccc23)c2cc(N3CCNCC3)ccc21

>  <Relation Operator>
=

>  <Ki [µM]>
1.78

$$$$

###

experiment: Protein binding in rat brain at 10 mg/kg, po; assay type: ADME, organism-based; design: dose 10 mg/kg, route oral; conditions: read-out: PPB (converted)
Metric: fraction unbound

>  <Compound>
O=S(=O)(c1cccc2ccccc12)c1n[nH]c2ccc(N3CCNCC3)cc12

>  <Metric>
fraction unbound

>  <Readout Value>
0.2

$$$$

###

target: 5-hydroxytryptamine receptor 7 (Homo sapiens)
Sequence (P34969 whole entry): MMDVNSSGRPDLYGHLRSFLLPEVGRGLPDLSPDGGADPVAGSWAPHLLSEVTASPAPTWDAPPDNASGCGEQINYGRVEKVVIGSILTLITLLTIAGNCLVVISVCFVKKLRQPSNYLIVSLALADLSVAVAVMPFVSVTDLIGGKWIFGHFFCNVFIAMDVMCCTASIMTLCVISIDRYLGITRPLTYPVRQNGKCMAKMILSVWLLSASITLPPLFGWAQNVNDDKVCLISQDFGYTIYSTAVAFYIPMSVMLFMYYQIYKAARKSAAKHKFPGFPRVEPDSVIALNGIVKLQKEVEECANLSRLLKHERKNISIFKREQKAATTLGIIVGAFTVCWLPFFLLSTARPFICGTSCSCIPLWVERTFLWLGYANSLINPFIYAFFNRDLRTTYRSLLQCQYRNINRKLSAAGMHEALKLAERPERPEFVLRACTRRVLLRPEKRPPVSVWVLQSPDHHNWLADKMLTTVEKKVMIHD
pKi: −log10 of the molar value.
Metric: pKi

>  <Compound>
CN1CCN(c2ccc3[nH]nc(S(=O)(=O)c4cccc5ccccc45)c3c2)CC1

>  <Readout Value>
6.24

$$$$

###

biological target: UniProt:P08913
Sequence (P08913 whole entry): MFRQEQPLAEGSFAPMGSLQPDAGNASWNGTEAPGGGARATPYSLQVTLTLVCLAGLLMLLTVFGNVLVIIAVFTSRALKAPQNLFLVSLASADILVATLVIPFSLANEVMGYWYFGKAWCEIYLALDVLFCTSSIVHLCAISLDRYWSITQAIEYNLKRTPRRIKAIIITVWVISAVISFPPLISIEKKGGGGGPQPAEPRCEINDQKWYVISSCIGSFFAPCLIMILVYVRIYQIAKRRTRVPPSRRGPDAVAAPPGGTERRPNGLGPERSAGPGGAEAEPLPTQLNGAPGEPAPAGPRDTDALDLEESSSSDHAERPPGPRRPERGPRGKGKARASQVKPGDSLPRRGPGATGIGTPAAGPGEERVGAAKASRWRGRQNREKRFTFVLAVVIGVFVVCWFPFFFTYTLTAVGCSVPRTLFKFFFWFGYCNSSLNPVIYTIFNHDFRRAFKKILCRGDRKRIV
Listing of entries alongside the reported Ki.

>  <Compound>
CC(C)n1nc(S(=O)(=O)c2cccc3ccccc23)c2cc(N3CCNCC3)ccc21

>  <Ki>
> 5 µM

$$$$
>  <Compound>
CN1CCN(c2ccc3[nH]nc(S(=O)(=O)c4cccc5ccccc45)c3c2)CC1

>  <Ki>
> 5 µM

$$$$
>  <Compound>
O=S(=O)(c1cccc2ccccc12)c1n[nH]c2ccc(N3CCNCC3)cc12

>  <Ki>
> 5 µM

$$$$

###

biological target: 5-hydroxytryptamine receptor 6 (Homo sapiens, UniProt P50406); assay: Antagonist activity at human cloned 5HT6 receptor expressed in human HeLa cells by cyclase assay relative to control; type: functional, cell-based
Sequence (P50406 whole entry): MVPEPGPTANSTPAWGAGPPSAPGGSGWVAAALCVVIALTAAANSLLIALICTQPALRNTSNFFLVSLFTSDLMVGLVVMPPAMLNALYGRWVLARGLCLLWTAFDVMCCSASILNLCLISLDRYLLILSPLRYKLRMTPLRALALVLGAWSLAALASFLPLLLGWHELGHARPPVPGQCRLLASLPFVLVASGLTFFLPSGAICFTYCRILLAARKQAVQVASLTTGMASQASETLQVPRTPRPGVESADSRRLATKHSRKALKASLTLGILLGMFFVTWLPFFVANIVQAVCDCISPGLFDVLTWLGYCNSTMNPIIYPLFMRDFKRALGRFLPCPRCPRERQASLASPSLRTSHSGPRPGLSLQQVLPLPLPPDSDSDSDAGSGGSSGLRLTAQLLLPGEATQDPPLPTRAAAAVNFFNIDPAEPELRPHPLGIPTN
Listing of entries alongside the reported Imax.
Metric: Imax (%)

>  <Compound>
COc1ccc(S(=O)(=O)c2n[nH]c3ccc(N4CCN(C)CC4)cc23)cc1

>  <Reading Unit>
%

>  <Readout Value>
100

$$$$
>  <Compound>
Cc1ccc(S(=O)(=O)c2n[nH]c3ccc(N4CCN(C)CC4)cc23)cc1

>  <Reading Unit>
%

>  <Readout Value>
100

$$$$
>  <Compound>
CN1CCN(c2ccc3[nH]nc(S(=O)(=O)c4cccc(F)c4)c3c2)CC1

>  <Reading Unit>
%

>  <Readout Value>
99

$$$$
>  <Compound>
CCCn1nc(S(=O)(=O)c2cccc3ccccc23)c2cc(N3CCN(C)CC3)ccc21

>  <Reading Unit>
%

>  <Readout Value>
100

$$$$
>  <Compound>
CCn1nc(S(=O)(=O)c2ccccc2)c2cc(N3CCNCC3)ccc21

>  <Reading Unit>
%

>  <Readout Value>
100

$$$$
>  <Compound>
CN1CCN(c2cccc3c(S(=O)(=O)c4cccc5ccccc45)n[nH]c23)CC1

>  <Reading Unit>
%

>  <Readout Value>
100

$$$$
>  <Compound>
CN1CCN(c2ccc3[nH]nc(S(=O)(=O)c4ccc(Cl)cc4)c3c2)CC1

>  <Reading Unit>
%

>  <Readout Value>
100

$$$$
>  <Compound>
CN1CCN(c2ccc3[nH]nc(S(=O)(=O)c4cccs4)c3c2)CC1

>  <Reading Unit>
%

>  <Readout Value>
96

$$$$
>  <Compound>
O=S(=O)(c1cccc2ccccc12)c1nn(Cc2ccccc2)c2ccc(N3CCNCC3)cc12

>  <Reading Unit>
%

>  <Readout Value>
100

$$$$

###

Molecular target: 5-hydroxytryptamine receptor 2C (Homo sapiens, UniProt P28335)
Sequence (P28335 whole entry): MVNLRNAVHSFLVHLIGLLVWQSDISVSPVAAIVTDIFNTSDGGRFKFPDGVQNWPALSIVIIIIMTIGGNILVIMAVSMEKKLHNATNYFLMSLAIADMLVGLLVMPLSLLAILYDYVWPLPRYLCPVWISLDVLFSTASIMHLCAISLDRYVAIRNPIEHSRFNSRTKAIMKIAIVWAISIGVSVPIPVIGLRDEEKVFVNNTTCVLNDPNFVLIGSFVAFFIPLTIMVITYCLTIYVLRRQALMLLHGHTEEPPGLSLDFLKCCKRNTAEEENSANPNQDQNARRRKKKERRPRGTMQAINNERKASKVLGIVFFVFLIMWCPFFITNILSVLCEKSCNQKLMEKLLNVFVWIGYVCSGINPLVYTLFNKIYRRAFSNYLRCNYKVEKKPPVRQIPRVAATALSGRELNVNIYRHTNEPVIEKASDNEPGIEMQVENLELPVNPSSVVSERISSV
Metric: Ki (nM)

>  <Compound>
CC(C)Cn1nc(S(=O)(=O)c2cccc3ccccc23)c2cc(N3CCNCC3)ccc21

>  <Metric>
Ki

>  <Readout Value>
1880

$$$$
>  <Compound>
CN1CCN(c2ccc3[nH]nc(S(=O)(=O)c4ccccc4)c3c2)CC1

>  <Metric>
Ki

>  <Readout Value>
3070

$$$$
>  <Compound>
CC(C)n1nc(S(=O)(=O)c2cccc3ccccc23)c2cc(N3CCNCC3)ccc21

>  <Metric>
Ki

>  <Readout Value>
1080

$$$$

###

biological target: 5-hydroxytryptamine receptor 6 (Homo sapiens, UniProt P50406); experiment: Antagonist activity at human cloned 5HT6 receptor expressed in human HeLa cells by cyclase assay
Metric: log10(IC50) (log10 of the value in nM)

>  <Compound>
CN1CCN(c2ccc3[nH]nc(S(=O)(=O)c4c(Cl)cccc4Cl)c3c2)CC1

>  <log10(IC50)>
1.60

$$$$
>  <Compound>
O=S(=O)(c1cccc2ccccc12)c1n[nH]c2ccc(N3CCNCC3)cc12

>  <log10(IC50)>
1.11

$$$$
>  <Compound>
CCCn1nc(S(=O)(=O)c2cccc3ccccc23)c2cc(N3CCNCC3)ccc21

>  <log10(IC50)>
0.34

$$$$
>  <Compound>
CN1CCN(c2ccc3[nH]nc(S(=O)(=O)c4ccc(F)cc4)c3c2)CC1

>  <log10(IC50)>
2.67

$$$$
>  <Compound>
CN1CCN(c2ccc3[nH]nc(S(=O)(=O)c4ccccc4Cl)c3c2)CC1

>  <log10(IC50)>
2.00

$$$$
>  <Compound>
CN1CCN(c2ccc3[nH]nc(S(=O)(=O)c4ccccc4)c3c2)CC1

>  <log10(IC50)>
0.94

$$$$
>  <Compound>
CN1CCN(c2ccc3[nH]nc(S(=O)(=O)c4cccc5ccccc45)c3c2)CC1

>  <log10(IC50)>
0.90

$$$$
>  <Compound>
CN1CCN(c2ccc3[nH]nc(S(=O)(=O)c4cccc(Cl)c4)c3c2)CC1

>  <log10(IC50)>
1.79

$$$$
>  <Compound>
Cc1ccc(S(=O)(=O)c2n[nH]c3ccc(N4CCN(C)CC4)cc23)cc1

>  <log10(IC50)>
2.05

$$$$
